Tested on: Agr P3 promoter
assay name: Agr P3-β-lactamase fusion screen: β-lactamase activity
assay conditions: corrected for cell density; screen at 10 μg/ml final, 6 hours, 35° C.; negative = induction
Where a SMILES comes first, the peptide text is derived from it. The star is where a group is joined. Bz = O=C(c1ccccc1)*
Output Condition met for β-Lactamase inhibition not less than 80%; output Condition not met otherwise.

Look over these answered cases.
compound	class name
CC(C)CC(NC(=O)c1ccccc1)C(=O)NC(Cc1ccc(O)cc1)C(N)=O (stereo not drawn) [Compound 8] (Bz-Leu-Tyr-NH2; configuration not given here)	Condition met
C=C1C(=O)OC2CC1C(OC(C)=O)CC(C)=CCCC(C)=CCCC2(C)O (centres unmarked) [Compound 15]	Condition not met
C=C(C)C=CCC1C(C)(O)CCC2C(C)(C)CCCC21C (centres unmarked) [Compound 1]	Condition not met
CC(=O)OC1CCC2(C)C(CC(=O)C3(C)C2CCC2(C)C(c4ccoc4)OC(=O)C4OC423)C1(C)C (centres unmarked) [Compound 2]	Condition met
CCCc1c(C(=O)Nc2cccc(C(F)(F)F)c2)cnn1-c1ccccc1 [Compound 9]	Condition met
Cc1cc(C(F)(F)F)cc(N(C)NC2OC(=O)c3ccccc32)n1 (centres unmarked) [Compound 12]	Condition not met

Request: Could you please find out whether CC(=O)OC1CC2C(C)(C)CCCC2(C)C2CCC3(C)C(=CC(=O)OC3c3ccoc3)C12C (centres unmarked) [Compound 3] has β-Lactamase inhibition that meets 80% or exceeds it?
Result: Condition met

Request: Would you say O=S(=O)(Nc1cc(C(F)(F)F)cc(C(F)(F)F)c1)c1cccc2nsnc12 [Compound 14] shows β-Lactamase inhibition at minimum 80%?
Result: Condition not met
